Listed here: items and their measured Kd.
# target.of.assay: T1, human serum albumin (human, UniProt P02768 25-609)
# T1 construct: also called HSA
# test.summary: SPR, albumin on chip, pH 5.5;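 also: albumins amine-coupled onto carboxyl SPR chips, with each analyte also run over a hen egg lysozyme surface as negative control, Kd derived from binding kinetics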
Field: numeric (nM). Do not append units.

Query block: # return recorded Kd for input BA11-C terminal cysteine-maleimide-peg-fluorescein (VNAR, C-terminal cysteine conjugated to maleimide-peg-fluorescein, also called BA11-cys-mal-Fl) VNAR: TRVDQSPSSLSASVGDRVTITCVLTDTSYPLYSTYWYRKNPGSSNKEQISISGRYSESVNKGTKSFTLTISSLQPEDSATYYCRAMSTNIWTGDGAGTKVEIK
Result block: 3.16

Query block: Please give the documented Kd of BA11 C-terminal thiol derivative (VNAR, C-terminal thiol (intein cleavage with cysteamine), also called BA11-SH) VNAR: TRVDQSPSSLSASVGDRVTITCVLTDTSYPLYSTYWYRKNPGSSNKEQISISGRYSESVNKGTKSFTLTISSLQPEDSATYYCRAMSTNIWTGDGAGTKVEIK
Result block: 2.23

Query block: Return Kd for the following binder: BA11 (humanised HSA-binding VNAR) (VNAR, VNAR) VNAR: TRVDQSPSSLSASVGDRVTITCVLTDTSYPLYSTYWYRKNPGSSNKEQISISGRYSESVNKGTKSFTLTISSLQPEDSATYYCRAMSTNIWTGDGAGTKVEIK
Result block: 0.91

Query block: Give recorded Kd. BA11-oxime-fluorescein (VNAR, C-terminal oxime-linked benzaldehyde-peg-fluorescein) VNAR: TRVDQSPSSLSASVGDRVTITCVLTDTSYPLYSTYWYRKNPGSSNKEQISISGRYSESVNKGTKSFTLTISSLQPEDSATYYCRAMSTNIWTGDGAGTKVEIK
Result block: 1.3

Query block: Supply recorded Kd for BA11 C-terminal cysteine derivative (VNAR, additional C-terminal cysteine (intein cleavage with cysteine), also called BA11-cys) VNAR: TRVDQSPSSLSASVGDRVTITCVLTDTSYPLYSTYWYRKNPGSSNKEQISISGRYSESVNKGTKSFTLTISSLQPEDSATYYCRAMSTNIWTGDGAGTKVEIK here.
Result block: 1.96

Others:
Query block: Dear colleague, please send me the reported Kd for BA11-C term thiol-maleimide-peg-fluorescein (VNAR, C-terminal thiol conjugated to maleimide-peg-fluorescein, also called BA11-S-mal-Fl) VNAR: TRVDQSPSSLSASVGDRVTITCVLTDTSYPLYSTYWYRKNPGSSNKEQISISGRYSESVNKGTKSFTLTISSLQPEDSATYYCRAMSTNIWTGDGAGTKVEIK when you can.
Result block: 1.91
